- Experiment Description: recombinant UMI read abundance after kanamycin selection (control-corrected) (log10(CPM+1)); higher = more efficient recombination; extreme values may be limits of the assay; sequences stand for … in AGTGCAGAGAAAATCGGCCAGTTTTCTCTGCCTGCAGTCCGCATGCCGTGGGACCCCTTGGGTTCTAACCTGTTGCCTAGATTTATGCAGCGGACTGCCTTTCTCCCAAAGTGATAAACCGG…AGGTTGGTTTCACT; site = the 11-nt donor;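 also: IS621 bridge recombinase in Escherichia coli cells against a fixed T5 target plasmid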
Reported recombinant UMI read abundance (log10) by item:
Reported Property: recombinant UMI read abundance (log10)

Sequence Text: AGAGCATCATGGACCGGTTTTCCCGGTAATCCGTATTTGGT (site AGAGCATCTAC)
Reported Property: recombinant UMI read abundance (log10)
Value Measured: 2.89
//
Sequence Text: ACTAAAACATGGACCGGTTTTCCCGGTAATCCGTATTTGAG (site ACTAAAACTCT)
Reported Property: recombinant UMI read abundance (log10)
Value Measured: 1.77
//
Sequence Text: AGCCAAGCATGGACCGGTTTTCCCGGTAATCCGTATTTGAG (site AGCCAAGCTCT)
Reported Property: recombinant UMI read abundance (log10)
Value Measured: 1.3
//
Sequence Text: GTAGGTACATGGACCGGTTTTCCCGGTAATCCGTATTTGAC (site GTAGGGACTGT)
Reported Property: recombinant UMI read abundance (log10)
Value Measured: 1.8
//
Sequence Text: GGCTGCTCATGGACCGGTTTTCCCGGTAATCCGTATTTGTG (site GGCTGCTCTCA)
Reported Property: recombinant UMI read abundance (log10)
Value Measured: 0.427
